The reported numbers originate from PubChem BioAssay AID720553.

# Tested on: Potassium voltage-gated channel subfamily H member 2, brain isoform KCNH2 3.1 (human)
# Assay procedure: qHTS for Inhibitors of KCHN2 3.1: Mutant qHTS; further: on the % scale 0 is the no-effect control and ±100 the full control effect
# Assay setup: U2OS KCNH2 3.1, thallium flux FluxOr
Out of some 340,000 compounds screened, about 3,300 (0.97%) were called active.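 How the source made its calls: active means maximum activity change below -70%; inconclusive means maximum activity change from -70% to -50%; inactive means maximum activity change above -50%.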 The entries come from a sample that favours actives as a whole.
The categories you may choose from are active, inactive

Example entries and their recorded answers appear below.
CC1CCc2[nH]c3ccc(C(=O)N(C)CC(=O)Nc4cccc(F)c4)cc3c2C1 (stereo not given) = inactive
C[C@@H]1CN([C@H](C)CO)C(=O)CCCn2nncc2CO[C@@H]1CN(C)S(=O)(=O)c1cccc(C#N)c1 = active
Cc1ccccc1-c1ccc2c(c1)O[C@@H](CN(C)Cc1ccc(C(=O)O)cc1)[C@@H](C)CN([C@H](C)CO)S2(=O)=O = inactive
CN(C(=O)c1cccc(NC(=O)Cc2cccc([N+](=O)[O-])c2)c1)C1CCCCC1 = inactive
COc1ccc2nc(-c3ccccn3)ccc2c1 = inactive
C[C@H]1CN([C@@H](C)CO)C(=O)CCCn2nncc2CO[C@@H]1CN(C)S(=O)(=O)c1cccc(C#N)c1 = inactive
Cc1sc2nc(-c3ccccc3F)oc(=O)c2c1C = inactive
COc1cccc(OC)c1C(=O)Nc1c(C(=O)N2CCN(c3ccccn3)CC2)oc2ccccc12 = inactive
OCC1OC(n2cnc3c(N4CCCC4)ncnc32)C(O)C1O (stereo not given) = inactive
COc1ccc([C@H]2N[C@]3(CCCN(CC4CCCCC4)C3=O)[C@H]3C(=O)N(C)C(=O)[C@@H]23)cc1 = inactive

## Task What is the recorded call for this compound in the test? `C[C@@H]1CN([C@@H](C)CO)C(=O)CCCn2nncc2CO[C@@H]1CN(C)S(=O)(=O)c1ccc(-c2ccccc2)cc1`
## Result inactive

## Task Here is the next compound: CC1CC(NC(=S)N(C)C)CC(C)(C)C1 (stereo not given)
## Result inactive

====

# Test system: Potassium voltage-gated channel subfamily H member 2, brain isoform KCNH2 3.1 (human)
# Assay procedure: qHTS for Inhibitors of KCHN2 3.1: Mutant qHTS; further: on the % scale 0 is the no-effect control and ±100 the full control effect
# Assay setup: U2OS KCNH2 3.1, thallium flux FluxOr; active compounds read low
Screen size: about 340,000 compounds; about 3,300 (0.97%) were called active. What follows is part of a selection rich in actives, with near analogues and random picks from the rest.
The reader will find reported activity change values listed item by item below.
Entry rule: numbers only, all in %.

Some solved entries appear below for comparison.
COc1ccc(OC)c(C(=O)NC2CCCc3c2cnn3-c2cc(C)cc(C)c2)c1 (stereo not given) = -6.38
O=S(=O)(c1cccs1)N1CCN(Cc2ccccc2)CC1 = -4.85
Cc1ccnc(SC2CC(=O)N(c3ccccc3)C2=O)n1 (stereo not given) = 1.28
N#Cc1c(NC(=O)CSc2nc3ccccc3c(=O)n2Cc2ccco2)sc2c1CCCC2 = -19.1

## Task # value lookup — system Potassium voltage-gated channel subfamily H member 2, brain isoform KCNH2 3.1 (human), readout activity change, item `CCOC(=O)CSc1nc2c(c(=O)n(Cc3ccccc3Cl)c(=O)n2C)n1C`
## Result -10.8

## Task Here is the next molecule: `O=C1CC[C@H](O)CCN1[C@H](CSc1ccc(Br)cc1)Cc1ccccc1`
## Result 8.81

====

# Test system: Potassium voltage-gated channel subfamily H member 2, brain isoform KCNH2 3.1 (human)
# Assay procedure: qHTS for Inhibitors of KCHN2 3.1: Mutant qHTS; further: on the % scale 0 is the no-effect control and ±100 the full control effect
# Assay setup: U2OS KCNH2 3.1, thallium flux FluxOr
About 3,300 (0.97%) of roughly 340,000 compounds were called active.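 How the source made its calls: active means maximum activity change below -70%; inconclusive means maximum activity change from -70% to -50%; inactive means maximum activity change above -50%.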 For the sample, actives were picked, then their nearest neighbours and some compounds at random.
The categories you may choose from are active, inactive

Example entries and their recorded answers appear below.
CCCCNC(=O)CSc1nc2n[nH]c(C)c2c(=N)n1-c1cccc(Cl)c1C = active
CN1OC[C@@H]2CN(S(=O)(=O)c3cccc(C(F)(F)F)c3)[C@H](c3ccc(-c4cc5ccccc5o4)cc3)C[C@@H]21 = inactive
CSc1ncnc2c1ncn2CCCNCc1cccs1 = inactive

## Task What is the recorded call for this molecule in the test? COc1ccccc1NC(=O)C1=C(C)Nc2ncnn2C1c1ccc(C)o1 (stereo not given)
## Result inactive

## Task Here is the next molecule: `COc1cccc(-n2c(SCC(=O)NC3CCCCC3)nc3n[nH]c(C)c3c2=N)c1`
## Result inactive

## Task Here is the next molecule: `Cc1ccc(-n2c(SCC(=O)NCCC3=CCCCC3)nc3n[nH]c(C)c3c2=N)cc1Cl`
## Result inactive

## Task Here is the next molecule: COc1ccccc1NC(=O)C1=C(C)Nc2nc3ccccc3n2C1c1cccs1 (stereo not given)
## Result inactive

## Task Here is the next molecule: CCOc1ccc(NS(=O)(=O)c2ccc(C(=O)NCC3CCCO3)cc2)cc1 (stereo not given)
## Result inactive

## Task Here is the next molecule: COCCCN1C(=O)C(CC(=O)NCc2cccs2)CC(C(=O)N2CCOCC2)=C1C (stereo not given)
## Result inactive

## Task Here is the next molecule: `O=C(COC(=O)c1ccc(S(=O)(=O)N2CCCCCC2)cc1)Nc1ccccc1C(F)(F)F`
## Result inactive

====

# Tested on: Potassium voltage-gated channel subfamily H member 2, brain isoform KCNH2 3.1 (human)
# Assay procedure: qHTS for Inhibitors of KCHN2 3.1: Mutant qHTS; further: on the % scale 0 is the no-effect control and ±100 the full control effect
# Assay setup: U2OS KCNH2 3.1, thallium flux FluxOr; active compounds read low
Hit rate of the full screen: of about 340,000 compounds, about 3,300 (0.97%) were called active. The sample as a whole holds a higher share of actives than the screen did.
The reader will find reported activity change values listed item by item below.
Entry rule: numbers only, all in %.

Some solved entries appear below for comparison.
O=C(Nc1c(-c2ccccc2)nc2c(Br)cc(Br)cn12)c1ccco1 = -72.2
CCCCCCC(O)(CCN1CCCCC1)c1ccccc1 (stereo not given) = -21.6
Cc1ccn(CC(=O)NC2CCCN(Cc3ccccc3F)C2)n1 (stereo not given) = 7.86
Cc1ccccc1NC(=O)c1cnn(-c2ccccc2)c1NC(=O)c1ccco1 = 11.4

Pending molecule:
## Task Tell me the measured activity change of `C[C@@H]1CN([C@H](C)CO)S(=O)(=O)c2ccc(C#CC3CCCCC3)cc2O[C@H]1CN(C)C(=O)Cc1ccncc1` , please.
## Result -2.79

====

# Tested on: Potassium voltage-gated channel subfamily H member 2, brain isoform KCNH2 3.1 (human)
# Assay procedure: qHTS for Inhibitors of KCHN2 3.1: Mutant qHTS; further: on the % scale 0 is the no-effect control and ±100 the full control effect
# Assay setup: U2OS KCNH2 3.1, thallium flux FluxOr; active compounds read low
Out of some 340,000 compounds screened, about 3,300 (0.97%) were called active. What follows is part of a selection rich in actives, with near analogues and random picks from the rest.
Property label: activity change (%)
Entry rule: numbers only, all in %.

Some solved entries appear below for comparison.
Cc1ccc(C(=O)N/C(=C\c2ccc(F)cc2)C(=O)NCCN2CCOCC2)cc1 = -89.5
COc1ccc(/C=C(\NC(=O)c2ccccc2)C(=O)NCCN2CCOCC2)cc1OC = -4.51
CCC(CC)COC(=O)C1=C(C)NC(=O)NC1c1ccc([N+](=O)[O-])cc1 (stereo not given) = 10.1
COC(=O)C[C@H]1C[C@@H]2c3cc(NC(=O)Nc4ccccc4)ccc3O[C@@H]2[C@@H](CO)O1 = 4.16

## Task Tell me the measured activity change of `Cc1ccc([C@H]2C[C@H](O)[C@@H](n3cc(COC(=O)c4ccccc4)nn3)CN2C(=O)C2CCCCC2)cc1` , please.
## Result -7.68

====

# Tested on: Potassium voltage-gated channel subfamily H member 2, brain isoform KCNH2 3.1 (human)
# Assay procedure: qHTS for Inhibitors of KCHN2 3.1: Mutant qHTS; further: on the % scale 0 is the no-effect control and ±100 the full control effect
# Assay setup: U2OS KCNH2 3.1, thallium flux FluxOr; active compounds read low
Hit rate of the full screen: of about 340,000 compounds, about 3,300 (0.97%) were called active. What follows is part of a selection rich in actives, with near analogues and random picks from the rest.
Property label: activity change (%)
Entry rule: numbers only, all in %.

Some solved entries appear below for comparison.
Cc1cccc(S(=O)(=O)N(C)C[C@@H]2OCc3cnnn3CCCC(=O)N([C@H](C)CO)C[C@@H]2C)c1 = 15.7
COc1ccc(NC(=O)C2=CC(c3ccc(OC)c(OC)c3)=NS(=O)(=O)N2C)cc1 = -5.31
C#CCOCCOCCOCCNc1nc(N2CCN(C(=O)C(Cc3ccc(O)cc3)n3cc(C(N)CC(C)C)nn3)CC2)nc(N2CCN(C(=O)C(Cc3ccc(O)cc3)n3cc(C(N)C(C)CC)nn3)CC2)n1 (stereo not drawn) = -9.18
C#CCOCCOCCOCCNc1nc(N2CCN(C(=O)[C@H](CCC(=O)O)n3cc(C(N)CO)nn3)CC2)nc(N2CCN(C(=O)[C@H](Cc3ccc(O)cc3)n3cc(C(N)[C@H](C)CC)nn3)CC2)n1 (stereo partly drawn) = -12.3
COc1ccc(C2=NS(=O)(=O)N(C)C(C(=O)NC(C)c3ccccc3)=C2)cc1 (stereo not drawn) = -85

## Task # value lookup — system Potassium voltage-gated channel subfamily H member 2, brain isoform KCNH2 3.1 (human), readout activity change, item `CCOc1ccc(CCNC(=O)COC(=O)c2ccc(C)c(S(=O)(=O)N3CCOCC3)c2)cc1OCC`
## Result 11.9

## Task Here is the next compound: `COc1ccc(NC(=O)C[C@H]2C(=O)N(CCc3ccccc3)C[C@@H]2C)cc1`
## Result 5.84

## Task Here is the next compound: `N#Cc1ccc(OCC(=O)Nc2nc(-c3ccccn3)cs2)cc1`
## Result 6.83
